The measurements presented in this section are drawn from ChEMBL document CHEMBL3046047.

Reported Activity is given for each of the following molecules.
System: Mus musculus
measurement_protocol: Analgesic activity in Mus musculus albino (mouse) assessed as protection against acetic acid-induced writhing at 200 mg/kg, po administered 30 min before acetic acid challenge measured after 15 min relative to control
Type: functional
Field format: number, assumed %, no unit text.

> print(dat)
                                   molecule  value.type  endpoint.value
1  C[C@H](c1ccc(-c2ccccc2)c(F)c1)c1nnc(SCC(=O)c2cc3ccccc3oc2=O)o1    Activity              60

Request: Can you look up Activity on Mus musculus for O=C(CSc1nnc(Cc2ccccc2Nc2c(Cl)cccc2Cl)o1)c1cc2ccccc2oc1=O ?
Result: 68

Request: # repeat for O=C(CSc1nnc(C2CCn3c(C(=O)c4ccccc4)ccc32)o1)c1cc2ccccc2oc1=O (centres undefined)
Result: 54

Request: # repeat for CC(c1cccc(C(=O)c2ccccc2)c1)c1nnc(SCC(=O)c2cc3ccccc3oc2=O)o1 (centres undefined)
Result: 73

* * *

System: Rattus norvegicus
measurement_protocol: Acute Anti-inflammatory activity in Rattus norvegicus albino (rat) assessed as inhibition of carrageenan-induced paw edema at 200 mg/kg, po administered 1 hr after carrageenan challenge measured after 5 hr relative to control
Format: functional
Reported inhibition in vivo at 200 mg/kg is given for each of the following compounds.
Field format: number, assumed %, no unit text.

> print(dat)
                                   compound  endpoint.value
1  C[C@H](c1ccc(-c2ccccc2)c(F)c1)c1nnc(SCC(=O)c2cc3ccccc3oc2=O)o1            61.6
2  COc1ccc2c(c1)c(Cc1nnc(SCC(=O)c3cc4ccccc4oc3=O)o1)c(C)n2C(=O)c1ccc(Cl)cc1            51.3
3  CC(C)Cc1ccc(C(C)c2nnc(SCC(=O)c3cc4ccccc4oc3=O)o2)cc1 (centres undefined)            46.1
4  O=C(CSc1nnc(-c2ccccc2O)o1)c1cc2ccccc2oc1=O            48.7
5  O=C(CSc1nnc(C2CCn3c(C(=O)c4ccccc4)ccc32)o1)c1cc2ccccc2oc1=O (centres undefined)            71.3
6  O=C(Cc1ccccc1Nc1c(Cl)cccc1Cl)OCc1nnc(SCC(=O)c2cc3ccccc3oc2=O)o1            26.3
7  CC(=O)Nc1ccc(OCc2nnc(SCC(=O)c3cc4ccccc4oc3=O)o2)cc1            43.4
8  CC(c1cccc(C(=O)c2ccccc2)c1)c1nnc(SCC(=O)c2cc3ccccc3oc2=O)o1 (centres undefined)            60.9

Query compound follows.
Request: I'd like to know its inhibition in vivo at 200 mg/kg. The compound in question is O=C(CSc1nnc(Cc2ccccc2Nc2c(Cl)cccc2Cl)o1)c1cc2ccccc2oc1=O
Result: 64.5
